Item-by-item account of Percent Control
Tested on: FYN
Conditions: Compound Concentration (nM):1000;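 also: KINOMEscan scanMAX binding as percent activity remaining versus control; lower means stronger binding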
reported-endpoint: Percent Control (%)

• NS(=O)(=O)c1ccc(N/N=C2\C(=O)Nc3ccc(-c4cnco4)cc32)cc1 = 81
• COc1ccccc1-c1cc(/C=C2\C(=O)Nc3ncc(Br)cc32)cc(Br)c1O [GW442130X] = 93
• Cc1cc(O)cc(C)c1/C=C/c1cncc(C(N)=O)c1 [GW435821X] = 70
• CC1=C(C(=O)Nc2ccc3[nH]ncc3c2)C(c2ccc(Cl)c(Cl)c2)CC(=O)N1 (centres unmarked) [GSK299115A] = 70
• COc1ccc(COc2ccc(Cc3cnc(N)nc3N)cc2OC)cc1 [GW632580X] = 100

====

Tested on: AXL
Details: Compound Concentration (nM):1000
Threshold-based label: Percent Control under 90% gives y, Percent Control not under 90% gives n.

- CCn1c(-c2nonc2N)nc2c(C#CC(C)(C)O)nc(OCCNC)cc21.Cl [GSK949675]: n
- CN1CCN(C(=O)c2ccc(NC(=O)Nc3ccc(N(C)c4ccnc(Nc5ccc(CS(C)(=O)=O)cc5)n4)cc3)cc2)CC1.Cl [GW830263A]: y
- COC(=O)Nc1nc2ccc(Oc3ccc(NC(=O)Nc4cc(C(F)(F)F)ccc4F)cc3)cc2s1.Cl [GW693917A]: y
- COc1cccc(-c2c[nH]c3c(N/N=C/c4ccncc4)ncnc23)c1 [GW814408X]: y
- Cl.O=C(O[C@H]1CN[C@H](C#Cc2cc3ncnc(Nc4ccc5c(cnn5Cc5ccccc5)c4)c3s2)C1)N1CCOCC1 [GSK200398A]: n
- NS(=O)(=O)c1ccc(N/N=C2\C(=O)Nc3ccc(C(=O)NCCc4c[nH]cn4)cc32)cc1 [GW300660X]: n

====

Tested on: PIM1
Details: Compound Concentration (nM):1000
reported-endpoint: Percent Control

• NS(=O)(=O)c1ccc(N/N=C2\C(=O)Nc3ccc(C(=O)NCc4ccncc4)cc32)cc1 [GW300657X] = 100%
• Nc1ncnc2occ(-c3ccc(NC(=O)Nc4cc(C(F)(F)F)ccc4F)cc3)c12 [GW770249X] = 100%
• Cc1cc(O)cc(C)c1/C=C/c1cncc(C(N)=O)c1 [GW435821X] = 100%
• COc1cccc(-n2ncc3c(N/N=C/c4ccncc4)ncnc32)c1 [GW784752X] = 100%
• CC1=C(C(=O)Nc2ccc3[nH]ncc3c2)C(c2ccc(Cl)c(Cl)c2)CC(=O)N1 (stereo not drawn) [GSK299115A] = 83%
• COc1cc(N2CCN(C(C)C)CC2)ccc1Nc1nc(Nc2ccc(F)cc2C(=O)NC[C@@H](O)CO)c2cc[nH]c2n1 [GSK1392956A] = 100%
• COc1ccc2c(-c3ccnc(Nc4cccc(OC(F)(F)F)c4)n3)cnn2n1 [GW810372X] = 100%
• CCS(=O)(=O)c1ccc(OC)c(Nc2ncc(-c3cccc(OC)c3)o2)c1 [GW580509X] = 100%
• CCc1ccc(Oc2nccc(-c3c(-c4ccc(F)cc4)ncn3C3CCNCC3)n2)cc1 [SB-242719] = 100%
• O=C1Nc2ccc(C(=O)c3ccco3)cc2C1=Cc1cc(Cl)c(O)c(Cl)c1 [GW406108X] = 32%
• Cl.c1ccc(Cc2nc3ccc(Nc4ncnc5ccccc45)cc3[nH]2)cc1 [GR269666A] = 100%
• NS(=O)(=O)c1ccc(N/N=C2\C(=O)Nc3ccc(Cl)cc32)cc1 [GW280670X] = 100%

Taken from paper PMC7826789.
